Tested on: HeLa Kyoto
TEST: melting temperature (median over replicates), in situ; higher = more thermally stable
DETAILS: cell cycle stage: G1/S
This listing pairs sequences with measured melting temperature.
QUANTITY: melting temperature

• MIKAILIFNNHGKPRLSKFYQPYSEDTQQQIIRETFHLVSKRDENVCNFLEGGLLIGGSDNKLIYRHYATLYFVFCVDSSESELGILDLIQVFVETLDKCFENVCELDLIFHVDKVHNILAEMVMGGMVLETNMNEIVTQIDAQNKLEKSEAGLAGAPARAVSAVKNMNLPEIPRNINIGDISIKVPNLPSFK [AP3S1] = 50.8 °C
• MKFRAKIVDGACLNHFTRISNMIAKLAKTCTLRISPDKLNFILCDKLANGGVSMWCELEQENFFNEFQMEGVSAENNEIYLELTSENLSRALKTAQNARALKIKLTNKHFPCLTVSVELLSMSSSSRIVTHDIPIKVIPRKLWKDLQEPVVPDPDVSIYLPVLKTMKSVVEKMKNISNHLVIEANLDGELNLKIETELVCVTTHFKDLGNPPLASESTHEDRNVEHMAEVHIDIRKLLQFLAGQQVNPTKALCNIVNNKMVHFDLLHEDVSLQYFIPALS [HUS1] = 51.8 °C
• MSVRVARVAWVRGLGASYRRGASSFPVPPPGAQGVAELLRDATGAEEEAPWAATERRMPGQCSVLLFPGQGSQVVGMGRGLLNYPRVRELYAAARRVLGYDLLELSLHGPQETLDRTVHCQPAIFVASLAAVEKLHHLQPSVIENCVAAAGFSVGEFAALVFAGAMEFAEGLYAVKIRAEAMQEASEAVPSGMLSVLGQPQSKFNFACLEAREHCKSLGIENPVCEVSNYLFPDCRVISGHQEALRFLQKNSSKFHFRRTRMLPVSGAFHTRLMEPAVEPLTQALKAVDIKKPLVSVYSNVHAHRYRHPGHIHKLLAQQLVSPVKWEQTMHAIYERKKGRGFPQTFEVGPGRQLGAILKSCNMQAWKSYSAVDVLQTLEHVDLDPQEPPR [MT] = 59 °C
• MAVATAAAVLAALGGALWLAARRFVGPRVQRLRRGGDPGLMHGKTVLITGANSGLGRATAAELLRLGARVIMGCRDRARAEEAAGQLRRELRQAAECGPEPGVSGVGELIVRELDLASLRSVRAFCQEMLQEEPRLDVLINNAGIFQCPYMKTEDGFEMQFGVNHLGHFLLTNLLLGLLKSSAPSRIVVVSSKLYKYGDINFDDLNSEQSYNKSFCYSRSKLANILFTRELARRLEGTNVTVNVLHPGIVRTNLGRHIHIPLLVKPLFNLVSWAFFKTPVEGAQTSIYLASSPEVEGVSGRYFGDCKEEELLPKAMDESVARKLWDISEVMVGLLK [RDH14] = 51.8 °C
• MEALILEPSLYTVKAILILDNDGDRLFAKYYDDTYPSVKEQKAFEKNIFNKTHRTDSEIALLEGLTVVYKSSIDLYFYVIGSSYENELMLMAVLNCLFDSLSQMLRKNVEKRALLENMEGLFLAVDEIVDGGVILESDPQQVVHRVALRGEDVPLTEQTVSQVLQSAKEQIKWSLLR [COPZ1] = 52.4 °C

###

System: HeLa Kyoto;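 also: HeLa Kyoto cells synchronized by double thymidine or nocodazole block, proteins quantified by TMT10plex mass spectrometry, three independent biological replicates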
TEST: melting temperature (median over replicates), in situ; higher = more thermally stable
DETAILS: cell cycle stage: G1/S
QUANTITY: melting temperature (°C)

* MRGAGAILRPAARGARDLNPRRDISSWLAQWFPRTPARSVVALKTPIKVELVAGKTYRWCVCGRSKKQPFCDGSHFFQRTGLSPLKFKAQETRMVALCTCKATQRPPYCDGTHRSERVQKAEVGSPL [CISD3] | 50.8
* MRDRTHELRQGDDSSDEEDKERVALVVHPGTARLGSPDEEFFHKVRTIRQTIVKLGNKVQELEKQQVTILATPLPEESMKQELQNLRDEIKQLGREIRLQLKAIEPQKEEADENYNSVNTRMRKTQHGVLSQQFVELINKCNSMQSEYREKNVERIRRQLKITNAGMVSDEELEQMLDSGQSEVFVSNILKDTQVTRQALNEISARHSEIQQLERSIRELHDIFTFLATEVEMQGEMINRIEKNILSSADYVERGQEHVKTALENQKKARKKKVLIAICVSITVVLLAVIIGVTVVG [STX4] | 51.2

Origin of the recorded values: the supplement of paper PMC5998384
